Lab note: pIC50 readings collected with human autotaxin (ATX) (Homo sapiens (Human)) for the following molecules.
pIC50: −log10 of the molar value.

May I ask what pIC50 has been recorded for O=C(O)CCN1CC(=O)N2Cc3c(c4ccccc4n3Cc3ccc(F)cc3)CC2C1=O (stereo not shown) ?
> 6.30

May I ask what pIC50 has been recorded for O=C(O)CCCN1C(=O)C2Cc3c(n(CCCc4ccccc4)c4ccccc34)CN2C1=O (racemic) ?
> 6.30

May I ask what pIC50 has been recorded for O=C(O)CCN1CC2Cc3c(n(Cc4ccc(F)cc4)c4ccccc34)CN2C1=O (stereo not shown) ?
> 6.30

May I ask what pIC50 has been recorded for O=C(O)CCN1C(=O)[C@@H]2Cc3c(n(Cc4ccc(F)cc4)c4ccccc34)CN2C1=S [Compound E1] ?
< 6.00

May I ask what pIC50 has been recorded for O=C(O)CCN1C(=O)C2Cc3c(n(Cc4ccc(F)cc4)c4ncccc34)CN2C1=O (stereo not shown) ?
> 6.30

May I ask what pIC50 has been recorded for O=C1C2Cc3c(n(Cc4ccc(F)cc4)c4ccccc34)CN2C(=O)N1Cc1nn[nH]n1 (racemic) ?
> 6.30

May I ask what pIC50 has been recorded for O=C1NC(=S)N2Cc3c(c4ccccc4n3Cc3ccc(F)cc3)C[C@@H]12 [Compound E2] ?
> 6.30

May I ask what pIC50 has been recorded for O=C1NC(=O)N2Cc3c(c4ccccc4n3Cc3ccc(F)cc3)CC12 (racemic) ?
> 6.30

May I ask what pIC50 has been recorded for COc1ccc(Cn2c3c(c4ccccc42)C[C@H]2C(=O)N(CCC(=O)O)C(=O)N2C3)cn1 ?
> 6.30

May I ask what pIC50 has been recorded for CC12Cc3c(n(Cc4ccc(F)cc4)c4ccccc34)CN1C(=O)N(CCC(=O)O)C2=O (stereo not shown) ?
< 6.00

May I ask what pIC50 has been recorded for O=C(O)CCN1C(=O)[C@@H]2Cc3c(n(Cc4ccc(F)cc4F)c4ccccc34)CN2C1=O ?
> 6.30

May I ask what pIC50 has been recorded for O=C1NC(=O)N2Cc3c(c4ccccc4n3Cc3ccc(F)cc3)C[C@@H]12 ?
> 6.30

May I ask what pIC50 has been recorded for O=C(O)CCCN1C(=O)C2Cc3c(n(Cc4ccc(F)cc4)c4ccccc34)CN2C1=O (racemic) ?
> 6.30

May I ask what pIC50 has been recorded for O=C1NC(=S)N2Cc3c(c4cccnc4n3Cc3ccc(F)cc3)CC12 (stereo not shown) ?
> 6.30

May I ask what pIC50 has been recorded for O=C(O)CN1C(=O)C2Cc3c(n(Cc4ccc(F)cc4)c4ccccc34)CN2C1=O (stereo not shown) ?
> 6.30

May I ask what pIC50 has been recorded for O=C(O)CN1CC2Cc3c(n(Cc4ccc(F)cc4)c4ccccc34)CN2C1=O (racemic) ?
6.00 to 6.30
